target: human glucagon-like peptide 1 receptor (human, UniProt P43220 24-463); experiment: cell-based or functional assay
Where no end group is shown, it is not given here. [ ]: non-standard residue; d: D form. Aib = CC(C)(N)C(=O)O
Listed next: entries and their corresponding hGLP-1R CRE Luc EC50 (pM).
// note: answer is a bare numeric in pM

The examples below pair each entry with its known result.
Y[Aib]QGTFTSDYSIYLDKQAA[Aib]KFVQWLLEGGPSSGAPPPS-NH2 (not fully specified (residue 21); printed as Y-Aib-QGTFTSDYSIYLDKQAA-Aib-K[2-[2-[2-[[2-[2-[2-[[(4S)-4-carboxy-4-(17-carboxyheptadecanoylamino)butanoyl]amino]ethoxy]ethoxy]acetyl]amino]ethoxy]ethoxy]acetyl]-FVQWLLEGGPSSGAPPPS-NH2) [Compound No. 4] :: 9.4
H[Aib]HGTFTSDYSIYLEKKYA[Aib]EFVQWLLEGGPSSGAPPPS-NH2 (not fully specified (residue 16); printed as H-Aib-HGTFTSDYSIYLE-K[2-[2-[2-[[2-[2-[2-[[(4S)-4-carboxy-4-(19-carboxynonadecanoylamino)butanoyl]amino]ethoxy]ethoxy]acetyl]amino]ethoxy]ethoxy]acetyl]-KYA-Aib-EFVQWLLEGGPSSGAPPPS-NH2) [Compound No. 39] :: 4.4
Y[Aib]QGTFTSDYSIYLEKQAAQEFVQWLLEGGPSSGAPPPS-NH2 (not fully specified (residue 16); printed as Y-Aib-QGTFTSDYSIYLE-K[2-[2-[2-[[2-[2-[2-[[(4S)-4-carboxy-4-[[4-[(19-carboxynonadecanoylamino)methyl]cyclohexanecarbonyl]amino]butanoyl]amino]ethoxy]ethoxy]acetyl]amino]ethoxy]ethoxy]acetyl]-QAAQEFVQWLLEGGPSSGAPPPS-NH2) [Compound No. 20] :: 5.1

Could you tell me which hGLP-1R CRE Luc EC50 (pM) is on file for H[Aib]HGTFTSDYSIYLEKQKA[Aib]EFVQWLLEGGPSSGAPPPS-NH2 (not fully specified (residue 16); printed as H-Aib-HGTFTSDYSIYLE-K[(2S)-2-amino-6-[[(2S)-2-amino-6-[[(4S)-4-carboxy-4-(19-carboxynonadecanoylamino)butanoyl]amino]hexanoyl]amino]hexanoyl]-QKA-Aib-EFVQWLLEGGPSSGAPPPS-NH2) [Compound No. 35] ?
5.2

Could you tell me which hGLP-1R CRE Luc EC50 (pM) is on file for Y[Aib]QGTFTSDYSIYLDKKAA[Aib]EFVNWLLAGGPSSGAPPPS-NH2 (not fully specified (residue 17); printed as Y-Aib-QGTFTSDYSIYLDK-K[2-[2-[2-[[2-[2-[2-[[(4S)-4-carboxy-4-(17-carboxyheptadecanoylamino)butanoyl]amino]ethoxy]ethoxy]acetyl]amino]ethoxy]ethoxy]acetyl]-AA-Aib-EFVNWLLAGGPSSGAPPPS-NH2) [Compound No. 2] ?
7.1
